Tested on: Colon cancer organoid
procedure.text: Targeting of F14 CAF-induced therapy resistance in O14 CRC organoid-stroma co-culture. Cell viability is reported without Gefitinib.
Assay type: functional, Homo sapiens
condition.parameters: Homo sapiens, Concentration 10 uM; read-out: Cell Viability
measured.property: viability at 10 µM
Be sure to follow the number with its unit.

mol.smiles | subject.of.test | viability at 10 µM
Cn1cnc2c(F)c(Nc3ccc(Br)cc3Cl)c(C(=O)NOCCO)cc21 | Colon cancer organoid | 51.6%
NC1(c2ccc(-c3nc4ccn5c(=O)[nH]nc5c4cc3-c3ccccc3)cc2)CCC1 | Colon cancer organoid | 53.7%
CCOCCn1cc(C(=O)Nc2ccc(-n3nc(-c4cccnc4)cc3C(F)(F)F)cn2)ccc1=O | Colon cancer organoid | 82.6%
COc1cc(C(=O)N2CC[C@@H](O)[C@@H](N)C2)cc2nc(-c3cc4ccccc4n3CC3CC3)n(C)c12 | Colon cancer organoid | 107%
O=C(NC[C@@H]1[C@H]2CN(C(=O)OCc3cc(C(F)(F)F)cc(C(F)(F)F)c3)C[C@@H]12)c1ccc2[nH]nnc2c1 | Colon cancer organoid | 105%

Could you now consider this next compound?
Enquiry: I would be grateful if you could share the reported viability at 10 µM for `COc1nc2ccc([C@@](O)(c3ccccc3)C3CCN(C(C)=O)CC3)cc2c(Cl)c1Cc1ccc(-n2cccn2)cc1` .
Return: 146%

---

System: Colon cancer organoid
procedure.text: Targeting of F14 CAF-induced therapy resistance in O14 CRC organoid-stroma co-culture. Cell viability is reported with Gefitinib.
Format: functional, Homo sapiens
condition.parameters: Homo sapiens, Concentration 1 uM; read-out: Cell Viability
viability at 1 µM strictly under 40% means yes (1); at 40% or over means no (0).

These solved cases illustrate the format of a correct answer.
molecule | assigned.class
O=C(NCc1ncc(C(F)(F)F)cc1Cl)c1ccc2c(c1)C1(CCS(=O)(=O)CC1)[C@H](C1CC1)N2S(=O)(=O)c1ccc(F)cc1 [BAY-784] | no (0)
CN1C(=O)[C@@H](N2CCc3c(nn(Cc4ccccc4)c3Br)C2=O)COc2ccccc21 [TP-030-2] | yes (1)
O=C(Nc1ccc(Oc2ccc(F)cc2)cc1)N1CCc2ncccc2[C@H]1c1ccc(F)cc1 [BAY-897] | yes (1)
O=C(O)[C@H]1[C@H](Cn2nnc3ccccc3c2=O)CC[C@@H]1C(=O)c1ccc(OCCC2CCOCC2)cc1 [BAY-7598] | no (0)
C[C@@H]1CN(c2cc(-c3n[nH]c4ccc(OC5(C)CC5)cc34)ncn2)C[C@H](C)O1 [MLi-2] | yes (1)

Read the next record carefully.
Enquiry: API: query returns whether the molecule falls strictly under 40% in viability at 1 µM. Query: CNC(=O)Nc1ccc2c(c1)CC[C@@]21OC(=O)N(CC(=O)N(Cc2ccc(F)cc2)[C@@H](C)C(F)(F)F)C1=O [A-485]
Return: yes (1)

---

Test system: Colon cancer organoid
procedure.text: Targeting of F14 CAF-induced therapy resistance in O23 CRC organoid-stroma co-culture. Cell viability is reported with Gefitinib.
Type: functional, Homo sapiens
condition.parameters: Homo sapiens, Concentration 1 uM; read-out: Cell Viability
Known viability at 1 µM of a selection of molecules
Give the number; % is assumed, so skip it.

molecule | subject.of.test | output.unit | viability at 1 µM
Cc1cc(C)c(-n2ccn3nc(-c4cccnc4)cc23)cc1NC(=O)c1cc(C#N)cc(S(F)(F)(F)(F)F)c1 [BAY-826] | Colon cancer organoid | % | 58.2
CCCOc1ccc([C@@H]2[C@@H](C(=O)O)[C@H](c3ccc4c(c3)OCO4)CN2CC(=O)Nc2c(CC)cccc2CC)cc1 [A-1806262] | Colon cancer organoid | % | 38.9
O=C(Nc1ccc(Oc2ccc(F)cc2)cc1)N1CCc2ncccc2[C@H]1c1ccc(F)cc1 [BAY-897] | Colon cancer organoid | % | 47.5

We now examine a further molecule.
Enquiry: Returns the measured viability at 1 µM for the input molecule. Input: CNC(=O)Nc1ccc2c(c1)[C@@]1(CC2)OC(=O)N(CC(=O)N(Cc2ccc(F)cc2)[C@@H](C)C(F)(F)F)C1=O [A-486]
Return: 47.9

---

// values below are reported viability at 10 µM
Test system: Colon cancer organoid
procedure.text: Targeting of F14 CAF-induced therapy resistance in O14 CRC organoid-stroma co-culture. Cell viability is reported without Gefitinib.
Format: functional, Homo sapiens
condition.parameters: Homo sapiens, Concentration 10 uM; read-out: Cell Viability
Give just the number in %; leave the unit off.

compound | viability at 10 µM / %
CC(C)NC(=O)N1CC[C@H](NC2=Nc3cc(F)ccc3N(CC(F)F)c3ccc(Cl)cc32)C1 | 89.7
COc1cc(C#N)ccc1S(=O)(=O)Nc1ccc2c(c1)cc(C)c(=O)n2C | 101
NS(=O)(=O)c1cc(NC(=O)C2(c3ccccc3Cl)CC2)ccc1Oc1cccc(Cl)c1 [BAY-207] | 86.8

Note: attention shifts to another entry.
Enquiry: What measured viability at 10 µM is associated with `O=C1[C@H](Cc2ccc(O)cc2)N2C(=O)CCN(C(=O)NCc3ccccc3)[C@H]2CN1Cc1cccc2ccccc12` on Colon cancer organoid?
Return: 37.1

---

Consider the following molecules and their measured viability at 10 µM readings.
System: Colon cancer organoid
procedure.text: Targeting of F14 CAF-induced therapy resistance in O23 CRC organoid-stroma co-culture. Cell viability is reported without Gefitinib.
Assay type: functional, Homo sapiens
condition.parameters: Homo sapiens, Concentration 10 uM; read-out: Cell Viability
Square brackets hold non-standard residues; d marks the D form. Peptide text beside a SMILES is read from it. Arg(Me) = CNC(=N)NCCC[C@H](N)C(=O)O; d3Pal = N[C@H](Cc1cccnc1)C(=O)O; azaGly = NNC(=O)O
Write the quantity with the unit trailing the number.

Examples from the recorded data:
molecule | measured.property | value.observed
CCOC(=O)c1c(/C(C#N)=C\N)c2ccc(Cl)c(Cl)c2n1C | viability at 10 µM | 99.7%
CCCOc1ccn2c(C(C)=O)cc(-c3ccccc3S(C)(=O)=O)c2c1 | viability at 10 µM | 113%

Enquiry: Any idea what its viability at 10 µM is? The molecule is CNC(=N)NCCC[C@H](NC(=O)[C@H](CC(C)C)NC(=O)NNC(=O)[C@H](Cc1ccccc1)NC(=O)[C@H](CO)NC(=O)[C@H](CC(N)=O)NC(=O)[C@@H](Cc1cccnc1)NC(=O)[C@H](N)Cc1ccc(O)cc1)C(=O)NCC(N)=O [KISS1-543] (H-[dY][d3Pal]NSF[azaGly]L[Arg(Me)]G-NH2)
Return: 93.8%

---

Tested on: Colon cancer organoid
procedure.text: Targeting of F14 CAF-induced therapy resistance in O23 CRC organoid-stroma co-culture. Cell viability is reported without Gefitinib.
Assay type: functional, Homo sapiens
condition.parameters: Homo sapiens, Concentration 10 uM; read-out: Cell Viability
measured.property: viability at 10 µM (%)
Number only, in %; omit the unit.

mol.smiles | viability at 10 µM / %
CCS(=O)(=O)Nc1ccc(Oc2ccc(F)cc2F)c(-c2cn(C)c(=O)c3[nH]ccc23)c1 | 37.5
CNC(=O)c1cc(C(=O)N[C@H]2[C@@H]3COC[C@@H]32)cc2c1O[C@H](CF)[C@H]2c1ccccc1 | 102
Clc1cccc(-c2nnnn2Cc2cccnc2)c1Cl | 106
CN(C)C(=O)c1ccc(-c2cc(C(=O)N[C@@H]3CCc4ccccc43)no2)cc1O | 83.1

Okay, now this compound:
Enquiry: What does the record list as viability at 10 µM for `O=C([C@@H](Cc1cccc(C(F)(F)F)c1)NS(=O)(=O)c1cc(F)c2c(c1)CCNC2)N1CCCC1` ?
Return: 81.5

---

Tested on: Colon cancer organoid
procedure.text: Targeting of F14 CAF-induced therapy resistance in O23 CRC organoid-stroma co-culture. Cell viability is reported with Gefitinib.
Format: functional, Homo sapiens
condition.parameters: Homo sapiens, Concentration 10 uM; read-out: Cell Viability
Square brackets hold non-standard residues; d marks the D form. Peptide text beside a SMILES is read from it. Arg(Me) = CNC(=N)NCCC[C@H](N)C(=O)O; d3Pal = N[C@H](Cc1cccnc1)C(=O)O; azaGly = NNC(=O)O
viability at 10 µM by entry:
# number then unit; no other words

compound | subject.of.test | viability at 10 µM
CNC(=N)NCCC[C@H](NC(=O)[C@H](CC(C)C)NC(=O)NNC(=O)[C@H](Cc1ccccc1)NC(=O)[C@H](CO)NC(=O)[C@H](CC(N)=O)NC(=O)[C@@H](Cc1cccnc1)NC(=O)[C@H](N)Cc1ccc(O)cc1)C(=O)NCC(N)=O [KISS1-543] (H-[dY][d3Pal]NSF[azaGly]L[Arg(Me)]G-NH2) | Colon cancer organoid | 49.7%

Enquiry: Record request: viability at 10 µM value, item CN(C)[C@H]1CN(C2CCc3cccc(F)c32)C[C@@H]1c1ccc(N2CCN(S(C)(=O)=O)CC2)cc1 (some centres not stated)
Return: 107%

Enquiry: Record request: viability at 10 µM value, item NS(=O)(=O)c1cc(NC(=O)C2(c3ccccc3Cl)CC2)ccc1Oc1cccc(Cl)c1 [BAY-207]
Return: 42.5%

Enquiry: Need viability at 10 µM of Nc1nc(NCc2ccccc2)nc(-c2cccc(CO)c2)n1 [ZINC32547799] , thanks.
Return: 75.9%

Enquiry: Please give the measured viability at 10 µM for this compound: `O=C([C@@H](Cc1cccc(C(F)(F)F)c1)NS(=O)(=O)c1cc(F)c2c(c1)CCNC2)N1CCCC1`
Return: 55.1%

Enquiry: If you can, please state the reported viability at 10 µM value of O=C1NC(c2ccccn2)Sc2ccccc21 (configuration not stated) [BTZO-4] .
Return: 56.6%

Enquiry: Form field: reported viability at 10 µM of Cc1nccc(COC(=O)N2C[C@@H]3[C@@H](CNC(=O)c4ccc5[nH]nnc5c4)[C@@H]3C2)n1 [BI 3017]
Return: 38.3%
